Test system: MDA−MB−231 cells
Test: Cellular uptake of Pt by ICP-MS
Format: cell-based
Settings: MDA−MB−231, extracellular 3 µM, 3 h
Item-by-item account of Intracellular/extracellular ratio
Reply with the value as a number alone.

Check out these entries, answers already filled in.
| SMILES_INPUT | Intracellular/extracellular ratio |
| --- | --- |
| Cc1cc2cccnc2c2ncccc12.N[C@H]1CCCC[C@@H]1N.O=[N+]([O-])[O-].O=[N+]([O-])[O-].[Pt+2] | 154.59 |
| Cc1c(C)c2cccnc2c2ncccc12.N[C@H]1CCCC[C@@H]1N.O=[N+]([O-])[O-].O=[N+]([O-])[O-].[Pt+2] | 195.59 |

Now take the following compound into account.
INPUT: For the compound Cc1c(C)c2cccnc2c2ncccc12.N[C@H]1CCCC[C@@H]1N.O=[N+]([O-])[O-].O=[N+]([O-])[O-].[OH][Pt+2][OH] , what Intracellular/extracellular ratio is on record?
OUTPUT: 117.57
